# Procedure summary: Ratio of inhibitory activities against human tryptase to that of human urokinase plasminogen activator (microPa)
Observation type: Ratio

Data request: For N=C(N)N1CCCC(C[C@H]2C(=O)N(C(=O)N3CCN(C(=O)CCCCCc4ccccc4)CC3)[C@@H]2C(=O)O)C1 (some centres undefined) , what is its reported Ratio?
Data returned: > 17500

Data request: Now give it for N=C(N)N1CCCC(C[C@H]2C(=O)N(C(=O)N3CCN(C(=O)CCCCCc4ccccn4)CC3)[C@@H]2C(=O)O)C1 (some centres undefined) too.
Data returned: 5000

Data request: Next: `N=C(N)N1CCC[C@@H](C[C@H]2C(=O)N(C(=O)N3CCN(C(=O)CCCCCc4ccccc4)CC3)[C@@H]2C(=O)O)C1`
Data returned: > 19400

Note: attention shifts to another entry.
Data request: Requested field: Ratio. Item: CN(CCCCc1ccccc1)C(=O)N1CCN(C(=O)N2C(=O)[C@H](CC3CCCN(C(=N)N)C3)[C@H]2C(=O)O)CC1 (some centres undefined)
Data returned: > 5500
